Consider the following compounds and their measured IC50 readings.
- PROTOCOL NOTES: Antioxidant activity in pH 7.4 phosphate buffer assessed as DPPH radical scavenging activity after 30 mins by spectrophotometric analysis
- Type: functional
The reply should be a number in µM, with the unit left off.

*Q* Name the recorded IC50 for Cc1c(C)c2c(c(C)c1O)CCC(C)(C(=O)O)O2 (configuration not stated) [TROLOX] .
*A* 36.4

*Q* Name the recorded IC50 for CCOC(=O)c1c(-c2ccc(O)c(OC)c2)cn2c1c(=O)oc1ccccc12 .
*A* 46.4

* * *

- PROTOCOL NOTES: Reducing power of the compound assessed as reducing Fe3+ power at 80 uM using K3Fe(CN)6 in pH 6.6 phosphate buffer after 20 mins by spectrophotometric analysis
The source made the active and inactive calls. The calls are words filed in the database; no cut-off is given here.
Pick one: TRUE = active, FALSE = inactive

*Q* Please indicate how the test categorized CCOC(=O)c1c(-c2cc(OC)c(OC)c(OC)c2)cn2c1c(=O)oc1ccccc12 .
*A* FALSE

*Q* Please indicate how the test categorized CCOC(=O)c1c(-c2ccc(O)c(OC)c2)cn2c1c(=O)oc1ccccc12 .
*A* TRUE

*Q* Please indicate how the test categorized COC(=O)c1c(-c2cccc(Cl)c2)cn2c1c(=O)oc1ccccc12 .
*A* FALSE

*Q* Please indicate how the test categorized CCOC(=O)c1c(-c2ccc(C)cc2)cn2c1c(=O)oc1ccccc12 .
*A* TRUE
